The reported numbers originate from patent US4459290A.

Test system: Haemophilus influenzae Holt
assay-name: MIC, standard agar-dilution assay (Table V)
Format: cell-based
run-parameters: Haemophilus influenzae; H. influenzae Holt, ampicillin-sensitive strain; agar dilution; read-out: MIC
Where a name gives a salt, the structure may show the parent alone.
Provide the recorded MIC for the entries that follow.
Remember to quote the unit after the number.

IN: Bench note: what MIC did CCC1OC(=O)CC(O)C(C)C(OC2OC(C)C(O)C(N(C)C)C2O)C(CC=O)CC(C)C(=O)C=CC(C)=CC1CF (stereo not shown) show?
OUT: 1 µg/mL

IN: Bench note: what MIC did CCC1OC(=O)CC(O)C(C)C(OC2OC(C)C(O)C(N(C)C)C2O)C(CC=O)CC(C)C(=O)C=CC(C)=CC1CNC(=O)[C@H](N)c1ccccc1 (single isomer, unassigned) [Compound 12, bis(trifluoroacetate) salt] show?
OUT: 16 µg/mL

IN: Bench note: what MIC did CCC1OC(=O)CC(O)C(C)C(OC2OC(C)C(O)C(N(C)C)C2O)C(CC=O)CC(C)C(=O)C=CC(C)=CC1CSc1ccccc1 (stereo not shown) show?
OUT: 1 µg/mL

IN: Bench note: what MIC did CCC1OC(=O)CC(O)C(C)C(OC2OC(C)C(O)C(N(C)C)C2O)C(CC=O)CC(C)C(=O)C=CC(C)=CC1CSC(C)=O (stereo not shown) show?
OUT: 1 µg/mL

====

Provide the recorded log10 of MIC for the entries that follow.
Test system: Streptococcus Group D X66
assay-name: MIC, standard agar-dilution assay (Table V)
Format: cell-based
Where a name gives a salt, the structure may show the parent alone.
Remember, log10 of MIC, in µg/mL.

IN: What log10 of MIC appears in the records for this compound with Streptococcus Group D X66? CCC1OC(=O)CC(O)C(C)C(OC2OC(C)C(O)C(N(C)C)C2O)C(CC=O)CC(C)C(=O)C=CC(C)(OC)C2CC12 (centres unmarked)
OUT: 0.30

IN: What log10 of MIC appears in the records for this compound with Streptococcus Group D X66? CCC1OC(=O)CC(O)C(C)C(OC2OC(C)C(O)C(N(C)C)C2O)C(CC=O)CC(C)C(=O)C=CC(C)=CC1CN=[N+]=[N-] (centres unmarked)
OUT: -0.60

IN: What log10 of MIC appears in the records for this compound with Streptococcus Group D X66? CCC1OC(=O)CC(O)C(C)C(OC2OC(C)C(O)C(N(C)C)C2OC(C)=O)C(CC=O)CC(C)C(=O)C=CC(C)=CC1C[n+]1ccccc1 (centres unmarked)
OUT: 1.81

IN: What log10 of MIC appears in the records for this compound with Streptococcus Group D X66? CCC1OC(=O)CC(O)C(C)C(OC2OC(C)C(O)C(N(C)C)C2O)C(CC=O)CC(C)C(=O)C=CC(C)=CC1CNC(=O)[C@H](N)c1ccccc1 (single isomer, unassigned) [Compound 12, bis(trifluoroacetate) salt]
OUT: 0.90

IN: What log10 of MIC appears in the records for this compound with Streptococcus Group D X66? CCC1OC(=O)CC(O)C(C)C(OC2OC(C)C(O)C(N(C)C)C2O)C(CC=O)CC(C)C(=O)C=CC(C)=CC1CN (centres unmarked)
OUT: 0.90

IN: What log10 of MIC appears in the records for this compound with Streptococcus Group D X66? CCC1OC(=O)CC(O)C(C)C(OC2OC(C)C(O)C(N(C)C)C2O)C(CC=O)CC(C)C(=O)C=CC(C)=CC1CSc1nnc(C)s1 (centres unmarked)
OUT: -0.60

IN: What log10 of MIC appears in the records for this compound with Streptococcus Group D X66? CCC1OC(=O)CC(O)C(C)C(OC2OC(C)C(O)C(N(C)C)C2O)C(CC=O)CC(C)C(=O)C=CC(C)=CC1CNC(=O)Cc1ccccc1 (centres unmarked)
OUT: -0.30

IN: What log10 of MIC appears in the records for this compound with Streptococcus Group D X66? CCC1OC(=O)CC(O)C(C)C(OC2OC(C)C(O)C(N(C)C)C2O)C(CC=O)CC(C)C(=O)C=CC(C)=CC1CSc1n[nH]c(=O)c(=O)n1C (centres unmarked)
OUT: 1.20

IN: What log10 of MIC appears in the records for this compound with Streptococcus Group D X66? C=C1C=CC(=O)C(C)CC(CC=O)C(OC2OC(C)C(O)C(N(C)C)C2O)C(C)C(O)CC(=O)OC(CC)C2CC12 (centres unmarked)
OUT: 0.60

IN: What log10 of MIC appears in the records for this compound with Streptococcus Group D X66? CCC1OC(=O)CC(O)C(C)C(OC2OC(C)C(O)C(N(C)C)C2O)C(CC=O)CC(C)C(=O)C=CC(C)(OCCc2ccccc2)C2CC12 (centres unmarked)
OUT: 0.00

IN: What log10 of MIC appears in the records for this compound with Streptococcus Group D X66? CCC1OC(=O)CC(O)C(C)C(OC2OC(C)C(O)C(N(C)C)C2O)C(CC=O)CC(C)C(=O)C=CC(C)=CC1CF (centres unmarked)
OUT: -0.30

====

Test system: Haemophilus influenzae Holt
assay-name: MIC, standard agar-dilution assay (Table V)
Type: cell-based
run-parameters: Haemophilus influenzae
Lab note - cut at 8 µg/mL for MIC: Yes if strictly below, No if not.

IN: MIC strictly < 8 µg/mL for this compound? C=C1C=CC(=O)C(C)CC(CC=O)C(OC2OC(C)C(O)C(N(C)C)C2O)C(C)C(O)CC(=O)OC(CC)C2CC12 (stereo not drawn)
OUT: No

IN: MIC strictly < 8 µg/mL for this compound? CCC1OC(=O)CC(O)C(C)C(OC2OC(C)C(O)C(N(C)C)C2O)C(CC=O)CC(C)C(=O)C=CC(C)=CC1CSc1n[nH]c(=O)c(=O)n1C (stereo not drawn)
OUT: No

IN: MIC strictly < 8 µg/mL for this compound? CCC1OC(=O)CC(O)C(C)C(OC2OC(C)C(O)C(N(C)C)C2O)C(CC=O)CC(C)C(=O)C=CC(C)=CC1CN=[N+]=[N-] (stereo not drawn)
OUT: Yes

IN: MIC strictly < 8 µg/mL for this compound? CCC1OC(=O)CC(O)C(C)C(OC2OC(C)C(O)C(N(C)C)C2O)C(CC=O)CC(C)C(=O)C=CC(C)=CC1CNC(=O)Cc1ccccc1 (stereo not drawn)
OUT: Yes

====

Test system: Staphylococcus aureus
assay-name: MIC, broth-dilution microtiter test (Table VII)
Format: cell-based
run-parameters: Staphylococcus aureus
Provide the recorded MIC for the entries that follow.
Kindly provide the numeric value in µg/mL only, without the unit symbol.

IN: Bench note: what MIC did CCC1OC(=O)CC(O)C(C)C(OC2OC(C)C(O)C(N(C)C)C2O)C(CC=O)CC(C)C(=O)C=CC(C)(OCCc2ccccc2)C2CC12 (stereo not shown) [Compound 18] show?
OUT: 6.25

IN: Bench note: what MIC did CCC1OC(=O)CC(O)C(C)C(OC2OC(C)C(O)C(N(C)C)C2O)C(CC=O)CC(C)C(=O)C=CC(C)=CC1CN (stereo not shown) [Compound 9, 23-Deoxy-23-amino-OMT] show?
OUT: 12.5

IN: Bench note: what MIC did CCC1OC(=O)CC(O)C(C)C(OC2OC(C)C(O)C(N(C)C)C2O)C(CC=O)CC(C)C(=O)C=CC(C)=CC1CSc1nnnn1C (stereo not shown) [Compound 5] show?
OUT: 1.56

IN: Bench note: what MIC did C=C1C=CC(=O)C(C)CC(CC=O)C(OC2OC(C)C(O)C(N(C)C)C2O)C(C)C(O)CC(=O)OC(CC)C2CC12 (stereo not shown) [Compound 16] show?
OUT: 12.5

====

Tested on: Escherichia coli N10
assay-name: MIC, standard agar-dilution assay (Table V)
Type: cell-based
run-parameters: Escherichia coli; E. coli N10; agar dilution; read-out: MIC
assay-metric: MIC

IN: Bench note: what MIC did CCC1OC(=O)CC(O)C(C)C(OC2OC(C)C(O)C(N(C)C)C2O)C(CC=O)CC(C)C(=O)C=CC(C)(OCCc2ccccc2)C2CC12 (stereo not shown) show?
OUT: > 128 µg/mL

IN: Bench note: what MIC did CCC1OC(=O)CC(O)C(C)C(OC2OC(C)C(O)C(N(C)C)C2O)C(CC=O)CC(C)C(=O)C=CC(C)(OC)C2CC12 (stereo not shown) show?
OUT: > 128 µg/mL

IN: Bench note: what MIC did C=C1C=CC(=O)C(C)CC(CC=O)C(OC2OC(C)C(O)C(N(C)C)C2O)C(C)C(O)CC(=O)OC(CC)C2CC12 (stereo not shown) show?
OUT: > 128 µg/mL

IN: Bench note: what MIC did CCC1OC(=O)CC(O)C(C)C(OC2OC(C)C(O)C(N(C)C)C2O)C(CC=O)CC(C)C(=O)C=CC(C)=CC1CSc1nnc(C)o1 (stereo not shown) show?
OUT: > 128 µg/mL

IN: Bench note: what MIC did CCC1OC(=O)CC(O)C(C)C(OC2OC(C)C(O)C(N(C)C)C2O)C(CC=O)CC(C)C(=O)C=CC(C)=CC1CF (stereo not shown) show?
OUT: 32 µg/mL

IN: Bench note: what MIC did CCC1OC(=O)CC(O)C(C)C(OC2OC(C)C(O)C(N(C)C)C2O)C(CC=O)CC(C)C(=O)C=CC(C)=CC1CN=[N+]=[N-] (stereo not shown) show?
OUT: 32 µg/mL

IN: Bench note: what MIC did CCC1OC(=O)CC(O)C(C)C(OC2OC(C)C(O)C(N(C)C)C2OC(C)=O)C(CC=O)CC(C)C(=O)C=CC(C)=CC1C[n+]1ccccc1 (stereo not shown) show?
OUT: > 128 µg/mL
